testedSystem: Endothelin-1 receptor (Homo sapiens, UniProt P25101)
Sequence (P25101 whole entry): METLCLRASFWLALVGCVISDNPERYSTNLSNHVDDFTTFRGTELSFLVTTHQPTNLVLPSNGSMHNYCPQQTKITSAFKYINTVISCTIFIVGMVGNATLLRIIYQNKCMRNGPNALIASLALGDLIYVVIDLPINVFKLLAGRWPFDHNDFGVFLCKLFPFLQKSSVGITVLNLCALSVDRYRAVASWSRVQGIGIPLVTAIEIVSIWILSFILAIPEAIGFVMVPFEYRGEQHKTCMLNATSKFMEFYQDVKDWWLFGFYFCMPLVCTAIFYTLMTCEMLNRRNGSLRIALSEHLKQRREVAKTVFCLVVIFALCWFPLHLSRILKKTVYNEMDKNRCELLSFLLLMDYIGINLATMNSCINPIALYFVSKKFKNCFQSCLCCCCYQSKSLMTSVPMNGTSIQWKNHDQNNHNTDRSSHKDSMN
runDescription: Receptor binding affinity was determined against [125I]ET1 with recombinant human ETA receptor, expressed in baculovirus-infected Sf9 cells
experimentalReadout: IC50

INSERT INTO measurements (testsmiles, experimentalreadout, readoutvalue) VALUES
  ('COc1ccccc1Oc1c(NS(=O)(=O)c2ccc(C(C)(C)C)cc2)nc(-c2cccs2)nc1OCCOC(=O)Nc1ccccn1', 'IC50', '30 nM'),
  ('COc1ccccc1Oc1c(NS(=O)(=O)c2ccc(C(C)(C)C)cc2)nc(C)nc1OCCOC(=O)c1cccnc1', 'IC50', '880 nM'),
  ('COc1ccccc1Oc1c(NS(=O)(=O)c2ccc(C(C)(C)C)cc2)nc(C)nc1OCCO', 'IC50', '1500 nM'),
  ('COc1ccccc1Oc1c(NS(=O)(=O)c2ccc(C(C)(C)C)cc2)nc(N2CCOCC2)nc1OCCOC(=O)Nc1ccccn1', 'IC50', '17 nM');

---

Items are presented alongside their recorded pIC50.
Target sequence: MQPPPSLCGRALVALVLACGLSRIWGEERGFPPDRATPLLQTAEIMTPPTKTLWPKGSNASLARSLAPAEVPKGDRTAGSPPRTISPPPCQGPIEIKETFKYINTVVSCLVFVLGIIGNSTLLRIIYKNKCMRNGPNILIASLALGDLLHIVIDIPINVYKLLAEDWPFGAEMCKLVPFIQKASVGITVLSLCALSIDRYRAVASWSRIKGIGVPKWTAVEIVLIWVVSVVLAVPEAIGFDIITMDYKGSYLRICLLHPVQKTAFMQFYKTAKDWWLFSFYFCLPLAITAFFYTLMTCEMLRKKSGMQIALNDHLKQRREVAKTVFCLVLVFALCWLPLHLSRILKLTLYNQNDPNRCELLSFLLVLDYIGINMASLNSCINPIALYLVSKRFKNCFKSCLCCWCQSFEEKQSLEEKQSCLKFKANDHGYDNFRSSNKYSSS
pIC50: −log10 of the molar value.
experimentalReadout: pIC50

INSERT INTO measurements (testsmiles, experimentalreadout, readoutvalue) VALUES
  ('COc1ccccc1Oc1c(NS(=O)(=O)c2ccc(C(C)(C)C)cc2)nc(C)nc1OCCOC(=O)Nc1ccncc1', 'pIC50', 5.55),
  ('COc1ccccc1Oc1c(NS(=O)(=O)c2ccc(C(C)(C)C)cc2)nc(C)nc1OCCOC(=O)c1cccnc1', 'pIC50', 6.11),
  ('COc1ccccc1Oc1c(NS(=O)(=O)c2ccc(C(C)(C)C)cc2)nc(C)nc1OCCOC(=O)Nc1ccccn1', 'pIC50', 6.92),
  ('COc1ccccc1Oc1c(NS(=O)(=O)c2ccc(C)cn2)nc(N2CCOCC2)nc1OCCOC(=O)Nc1ccccn1', 'pIC50', 7.60),
  ('COc1ccccc1Oc1c(NS(=O)(=O)c2ccc(C(C)(C)C)cc2)nc(C)nc1OCCOC(=O)c1ccoc1', 'pIC50', 6.00),
  ('COc1ccccc1Oc1c(NS(=O)(=O)c2ccc(C(C)C)cn2)nc(N2CCOCC2)nc1OCCOC(=O)Nc1ccccn1', 'pIC50', 8.30),
  ('COc1ccccc1Oc1c(NS(=O)(=O)c2ccc(C(C)(C)C)cc2)nc(-c2ncccn2)nc1OCCOC(=O)Nc1ccccn1', 'pIC50', 7.37),
  ('COc1ccccc1Oc1c(NS(=O)(=O)c2ccc(C(C)(C)C)cc2)nc(C)nc1OCCNC(=O)Nc1ccccn1', 'pIC50', 5.91),
  ('COc1ccccc1Oc1c(NS(=O)(=O)c2ccc(C(C)(C)C)cc2)nc(N2CCOCC2)nc1OCCOC(=O)Nc1ccccn1', 'pIC50', 7.72),
  ('COc1ccccc1Oc1c(NS(=O)(=O)c2ccc(C(C)C)cn2)nc(-c2ncccn2)nc1OCCOC(=O)Nc1ccccn1', 'pIC50', 7.31),
  ('COc1ccccc1Oc1c(NS(=O)(=O)c2ccc(C(C)C)cn2)nc(N2CCCCC2)nc1OCCOC(=O)Nc1ccccn1', 'pIC50', 7.60);
